// provenance: ChEMBL document CHEMBL1126579

Target: 3-oxo-5-alpha-steroid 4-dehydrogenase 2 (Homo sapiens)
Sequence (P31213 whole entry): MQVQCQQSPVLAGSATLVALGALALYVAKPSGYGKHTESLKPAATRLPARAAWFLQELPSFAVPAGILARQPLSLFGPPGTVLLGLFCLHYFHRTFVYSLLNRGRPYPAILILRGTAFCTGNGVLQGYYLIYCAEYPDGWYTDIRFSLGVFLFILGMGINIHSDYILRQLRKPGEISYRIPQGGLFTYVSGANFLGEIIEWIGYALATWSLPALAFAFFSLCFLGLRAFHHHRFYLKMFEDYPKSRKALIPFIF
Test: Inhibition of recombinant human 5-alpha reductase-2 […] after pre-incubation for 10 minutes
pIC50: −log10 of the molar value.
// label = YES if pIC50 is not less than 9, otherwise NO

{"columns": ["Compound", "Label"],
 "data": [
  ["CC(C)CC(=O)[C@H]1CCC2C3CNC4=CC(=O)CC[C@]4(C)C3CC[C@@]21C (stereo partly drawn)", "YES"]
]}

Does C[C@]12CCC(=O)C=C1NCC1C2CC[C@@]2(C)C1CC[C@@H]2C(=O)N1CCOCC1 (stereo partly drawn) have a reported pIC50 of at least 9?
NO

What about CC(C)N(C(=O)[C@H]1CCC2C3CNC4=CC(=O)CC[C@]4(C)C3CC[C@@]21C)C(C)C (stereo partly drawn) ?
YES

What about CON(C)C(=O)[C@H]1CCC2C3CNC4=CC(=O)CC[C@]4(C)C3CC[C@@]21C (stereo partly drawn) ?
NO

What about CC(C)(C)NC(=O)[C@H]1CC[C@H]2[C@@H]3CC[C@H]4NC(=O)C=C[C@]4(C)[C@H]3CC[C@]12C [FINASTERIDE] ?
YES

What about CC(C)(C)NC(=O)[C@H]1CC[C@H]2[C@@H]3CC=C4C=C(C(=O)O)CC[C@]4(C)[C@H]3CC[C@]12C [EPRISTERIDE] ?
NO

What about CCN(C)C(=O)[C@H]1CCC2C3CNC4=CC(=O)CC[C@]4(C)C3CC[C@@]21C (stereo partly drawn) ?
NO
